- experimental-target: UniProt:P15823
- Sequence (P15823 whole entry): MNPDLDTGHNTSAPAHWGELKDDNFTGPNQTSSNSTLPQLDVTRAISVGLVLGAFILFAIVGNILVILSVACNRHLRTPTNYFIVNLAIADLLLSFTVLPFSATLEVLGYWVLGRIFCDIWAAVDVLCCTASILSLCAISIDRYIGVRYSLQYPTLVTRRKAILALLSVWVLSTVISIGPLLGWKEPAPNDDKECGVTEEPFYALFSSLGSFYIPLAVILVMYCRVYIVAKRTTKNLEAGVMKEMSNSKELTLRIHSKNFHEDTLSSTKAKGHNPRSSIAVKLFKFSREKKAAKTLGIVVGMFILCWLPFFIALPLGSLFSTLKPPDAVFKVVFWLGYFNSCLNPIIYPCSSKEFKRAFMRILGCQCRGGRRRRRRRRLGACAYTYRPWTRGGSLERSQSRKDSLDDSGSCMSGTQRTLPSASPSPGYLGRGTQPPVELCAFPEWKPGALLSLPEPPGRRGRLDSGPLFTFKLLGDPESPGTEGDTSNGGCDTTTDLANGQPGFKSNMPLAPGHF
Where a name gives a salt, the structure may show the parent alone.
observation-type: Ki

Examples from the recorded data:
| compound | observation-type | result |
| --- | --- | --- |
| COC(=O)CCCC(=O)NCCCN1CCN(c2ccccc2OC)CC1 [hydrochloride] | Ki | > 1000 nM |
| CC(C)Oc1ccccc1N1CCN(CCCNC(=O)CCCC(=O)O)CC1 | Ki | 2100 nM |
| O=C(O)C1CC=CCC1C(=O)NCCCN1CCN(c2ccccc2O)CC1 (centres unmarked) | Ki | 5080 nM |
| COc1ccccc1N1CCN(CC(O)CNC(=O)CCCC(=O)O)CC1 (centres unmarked) | Ki | > 10000 nM |

In the following, a different compound is considered.
Just so you know, measured Ki for CC(C)Oc1ccccc1N1CCN(CCCNC(=O)C2CC=CCC2C(=O)O)CC1 (centres unmarked) came out at > 1000 nM
